# measured_target: UniProtKB P10275
# protocol_notes: MDA-MB-453 Androgen Receptor Transactivation Assay (PSA-Luc reporter, 3 nM DHT)
# Assay type: cell-based
# experimental_context: MDA-MB-453 cells, antagonism in presence of 3 nM DHT, 48 hour incubation
pIC50: −log10 of the molar value.
I'd be grateful if you could share measured pIC50 for these entries.

Identify the measured pIC50 of C[C@@]12O[C@]3(CCO[C@]4(C)[C@H]3[C@H]1C(=O)N4c1ccc(C#N)c(C(F)(F)F)c1)C[C@@H]2O (single isomer, unassigned) for UniProtKB P10275.
< 5.12

Identify the measured pIC50 of C[C@@]12O[C@]3(CCO[C@@H]4[C@H]3[C@H]1C(=O)N4c1ccc(C#N)c(C(F)(F)F)c1)C[C@H]2N for UniProtKB P10275.
< 5.12

Identify the measured pIC50 of CCNC(=O)[C@]12C(=O)N(c3ccc(C#N)c(C(F)(F)F)c3)[C@@H]3OCC[C@@]4(C[C@H](O)[C@]1(C)O4)[C@@H]32 (single isomer, unassigned) for UniProtKB P10275.
< 5.12
